- Study system: human GR (Homo sapiens)
- Experiment description: Trans-Activation Modulation of Glucocorticoid Receptor (GRAMMER), MMTV-LUC reporter, agonist mode
- Assay type: cell-based
- Set-up: endogenous in cells
- Test context: A549, A549 cells; maximum activity; read-out: Transactivation A549 Cells GRAMMER Emax
Assay metric: Emax (%)

compound=C[C@]12Cc3cnn(-c4ccc(F)cc4)c3C=C1CC[C@@H]2CN(CC1(O)CC1)S(=O)(=O)CC(F)(F)F study_system="human GR (Homo sapiens)" assay_metric=Emax readout_units=% reported_result=68.8
compound=CN1CCOc2cc(S(=O)(=O)N(CC3CC3)C[C@H]3CCC4=Cc5c(cnn5-c5ccc(F)cc5)C[C@@]43C)ccc21 study_system="human GR (Homo sapiens)" assay_metric=Emax readout_units=% reported_result=4.9

P = C[C@]12Cc3cnn(-c4ccc(F)cc4)c3C=C1CC[C@@H]2CN(CC1CCCO1)S(=O)(=O)c1ccc(C(N)=O)cc1 (stereo partly shown)
Q = Cc1cc(S(=O)(=O)N(CCO)C[C@H]2CCC3=Cc4c(cnn4-c4ccc(F)cc4)C[C@@]32C)c(C)o1
Pick the one with the larger Emax: P vs Q Your choice should be expressed through its label.
P
(P: 27.1%, Q: 5.3%)

====

- Study system: human GR (Homo sapiens, UniProt P04150)
- Experiment description: Trans-Activation Modulation of Glucocorticoid Receptor (GRAMMER), MMTV-LUC reporter, agonist mode
- Format: cell-based
- Parameters: endogenous in cells
- Test context: A549 cells; inflection point; read-out: Transactivation A549 Cells GRAMMER IP
Assay metric: EC50 (nM)

Use the examples below as a reference point.
compound=COC(=O)c1ccccc1CS(=O)(=O)N(C[C@H]1CCC2=Cc3c(cnn3-c3ccc(F)cc3)C[C@@]21C)C[C@@H](C)O reported_result=247
compound=C[C@]12Cc3cnn(-c4ccc(F)cc4)c3C=C1CC[C@@H]2CN(CCc1ccccc1F)S(=O)(=O)Cc1cccnc1 reported_result=218

a = Cn1cc(S(=O)(=O)N(CC(O)c2ccccn2)C[C@H]2CCC3=Cc4c(cnn4-c4ccc(F)cc4)C[C@@]32C)c(C(F)(F)F)n1 (stereo partly shown)
b = C[C@]12Cc3cnn(-c4ccc(F)cc4)c3C=C1CC[C@@H]2CN(CC#N)S(=O)(=O)c1ccc(-c2ccccc2)cc1
c = C[C@]12Cc3cnn(-c4ccc(F)cc4)c3C=C1CC[C@@H]2CN(CCO)S(=O)(=O)Cc1ccccc1
d = C[C@]12Cc3cnn(-c4ccc(F)cc4)c3C=C1CC[C@@H]2CN(CC1CC1)S(=O)(=O)/C=C/c1ccccc1
// ranking: key=EC50, reverse=True Your answer should be the labels, listed in the requested order.
c, b, a, d
(c: 450 nM, b: 228 nM, a: 124 nM, d: 82.9 nM)

====

- Study system: human GR (Homo sapiens, UniProt P04150)
- Sequence (P04150 1-777): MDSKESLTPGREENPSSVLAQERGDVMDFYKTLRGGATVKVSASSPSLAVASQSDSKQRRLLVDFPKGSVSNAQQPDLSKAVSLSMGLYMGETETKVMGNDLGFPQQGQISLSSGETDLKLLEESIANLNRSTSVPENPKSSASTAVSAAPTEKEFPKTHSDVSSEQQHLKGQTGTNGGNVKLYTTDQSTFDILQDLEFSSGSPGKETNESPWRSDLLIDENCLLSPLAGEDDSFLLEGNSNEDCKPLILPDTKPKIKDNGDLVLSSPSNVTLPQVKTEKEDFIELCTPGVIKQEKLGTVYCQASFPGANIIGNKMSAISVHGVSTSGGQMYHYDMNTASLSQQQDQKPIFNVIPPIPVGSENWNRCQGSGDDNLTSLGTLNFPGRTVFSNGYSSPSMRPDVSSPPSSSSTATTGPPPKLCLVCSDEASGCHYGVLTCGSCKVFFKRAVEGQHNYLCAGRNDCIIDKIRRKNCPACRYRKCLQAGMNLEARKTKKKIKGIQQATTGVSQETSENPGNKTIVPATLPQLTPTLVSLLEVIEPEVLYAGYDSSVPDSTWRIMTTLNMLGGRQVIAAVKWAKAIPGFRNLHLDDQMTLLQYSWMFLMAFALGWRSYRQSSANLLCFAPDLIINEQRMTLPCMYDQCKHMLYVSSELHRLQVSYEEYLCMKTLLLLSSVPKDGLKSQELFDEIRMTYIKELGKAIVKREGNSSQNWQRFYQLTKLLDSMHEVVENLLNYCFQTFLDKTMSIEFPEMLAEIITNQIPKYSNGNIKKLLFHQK
- Experiment description: Transrepression Assay (GITAR), TNFα-β-lactamase reporter in U937 cells
- Assay type: cell-based
- Parameters: U937 cells contain an endogenous glucocorticoid receptor (GR); endogenous in cells; host or cells: U937 cells stably transfected with the TNF-alpha promoter/beta-lactamase reporter
- Test context: U-937, U937 cells; maximum activity; read-out: Transrepression U937 Cells GITAR Emax
- Source text: This assay assesses the ability of test compounds to control transcription from the TNFα-β-lactamase reporter gene in U937 cells, a human myelomonocytic leukemia cell line that naturally expresses the human GR. The assay measures compound dependent-repression of the TNFa promoter linked to a reporter gene. The human U937 cells that had been stablely transfected with the TNF-α promoter driving β-lactamase are used for this assay. U937 cells contain an endogenous glucocorticoid receptor (GR). […]
Assay metric: Emax (%)

molecule="Cn1cc(S(=O)(=O)N(CC#N)C[C@H]2CCC3=Cc4c(cnn4-c4ccc(F)cc4)C[C@@]32C)c(C(F)(F)F)n1 [Example 32]" study_system="human GR (Homo sapiens, UniProt P04150)" reported_result=63.1

1 = CCCCCc1ccc(S(=O)(=O)N(CC2CC2)C[C@H]2CCC3=Cc4c(cnn4-c4ccc(F)cc4)C[C@@]32C)cc1 [Example 9]
2 = C[C@]12Cc3cnn(-c4ccc(F)cc4)c3C=C1CC[C@@H]2CN(CCc1ccccc1CO)S(=O)(=O)CC(F)(F)F [Example 163]
Kindly identify which of 1 and 2 has the larger recorded Emax value. In your reply, give the label of the chosen option.
2
(2: 86.9%, 1: 28.1%)

====

- Study system: UniProt:P04150
- Experiment description: Transrepression Assay (GITAR), TNFα-β-lactamase reporter in U937 cells
- Format: cell-based
- Design: U937 cells contain an endogenous glucocorticoid receptor (GR); endogenous in cells; host or cells: U937 cells stably transfected with the TNF-alpha promoter/beta-lactamase reporter
- Test context: U-937, U937 cells; maximum activity; read-out: Transrepression U937 Cells GITAR Emax
Assay metric: Emax (%)

smiles_entry=C[C@]12Cc3cnn(-c4ccc(F)cc4)c3C=C1CC[C@@H]2CN(CC1(O)CCCCC1)S(=O)(=O)c1ccccc1F assay_metric=Emax readout_units=% reported_result=69.5
smiles_entry=CCCCS(=O)(=O)N(CCc1ccccc1F)C[C@H]1CCC2=Cc3c(cnn3-c3ccc(F)cc3)C[C@@]21C assay_metric=Emax readout_units=% reported_result=86.5

I = C[C@]12Cc3cnn(-c4ccc(F)cc4)c3C=C1CC[C@@H]2CN(CCc1ccccc1O)S(=O)(=O)c1ccccc1F
II = Cc1ccccc1S(=O)(=O)N(CCO)C[C@H]1CCC2=Cc3c(cnn3-c3ccc(F)cc3)C[C@@]21C
Between I and II , which one has the lower reported Emax value? Your answer should be the label of the entry you select.
II

====

- Study system: glucocorticoid receptor (Homo sapiens)
- Construct: endogenous in cells
- Experiment description: Ligand binding assay (GR BIND)
Assay metric: Ki (nM)

molecule="C[C@]12Cc3cnn(-c4ccc(F)cc4)c3C=C1CC[C@@H]2CN(CC#N)S(=O)(=O)c1ccc(C#N)cc1 [Example 28]" assay_metric=Ki reported_result=2.3
molecule="COC(=O)c1ccccc1S(=O)(=O)N(C[C@H]1CCC2=Cc3c(cnn3-c3ccc(F)cc3)C[C@@]21C)C[C@H](C)O [Example 187]" assay_metric=Ki reported_result=2.5
molecule="CN(C[C@H]1CCC2=Cc3c(cnn3-c3ccc(F)cc3)C[C@@]21C)S(=O)(=O)CC(F)(F)F [Example 177]" assay_metric=Ki reported_result=1.6
molecule="C[C@]12Cc3cnn(-c4ccc(F)cc4)c3C=C1CC[C@@H]2CN(CC(O)C(F)(F)F)S(=O)(=O)Cc1cccnc1 (stereo partly shown) [Example 149]" assay_metric=Ki reported_result=1.8

====

- Study system: human GR (Homo sapiens, UniProt P04150)
- Experiment description: Transrepression Assay (GITAR), TNFα-β-lactamase reporter in U937 cells
- Type: cell-based
- Design: U937 cells contain an endogenous glucocorticoid receptor (GR); endogenous in cells; host or cells: U937 cells stably transfected with the TNF-alpha promoter/beta-lactamase reporter
- Test context: U937 cells; inflection point; read-out: Transrepression U937 Cells GITAR IP
Assay metric: EC50 (nM)

smiles_entry=Cc1noc(C)c1S(=O)(=O)N(CCCc1ccccc1)C[C@H]1CCC2=Cc3c(cnn3-c3ccc(F)cc3)C[C@@]21C readout_units=nM reported_result=291
smiles_entry=C[C@]12Cc3cnn(-c4ccc(F)cc4)c3C=C1CC[C@@H]2CN(CC#N)S(=O)(=O)Cc1ccccc1 readout_units=nM reported_result=175

a = COC(=O)c1ccccc1CCN(C[C@H]1CCC2=Cc3c(cnn3-c3ccc(F)cc3)C[C@@]21C)S(=O)(=O)CC(F)(F)F
b = C[C@H](O)CN(C[C@H]1CCC2=Cc3c(cnn3-c3ccc(F)cc3)C[C@@]21C)S(=O)(=O)c1ccc(F)c(Cl)c1
c = COC(=O)c1ccccc1S(=O)(=O)N(CCc1ccccc1F)C[C@H]1CCC2=Cc3c(cnn3-c3ccc(F)cc3)C[C@@]21C
d = C[C@]12Cc3cnn(-c4ccc(F)cc4)c3C=C1CC[C@@H]2CN(CCO)S(=O)(=O)c1ccc(F)c(Cl)c1
e = Cc1ccc(CCN(C[C@H]2CCC3=Cc4c(cnn4-c4ccc(F)cc4)C[C@@]32C)S(=O)(=O)c2ccccc2F)cc1
List the 5 entries from lowest EC50 to highest EC50 value. Could you list the labels in the order requested?
c, b, a, e, d
(c: 189 nM, b: 337 nM, a: 551 nM, e: 973 nM, d: 1720 nM)
